# Assay Target: T1, human GALR3 receptor (human, UniProt O60755 1-368)
# T1 construct: also called hGALR3; hGalR3
# T1 sequence: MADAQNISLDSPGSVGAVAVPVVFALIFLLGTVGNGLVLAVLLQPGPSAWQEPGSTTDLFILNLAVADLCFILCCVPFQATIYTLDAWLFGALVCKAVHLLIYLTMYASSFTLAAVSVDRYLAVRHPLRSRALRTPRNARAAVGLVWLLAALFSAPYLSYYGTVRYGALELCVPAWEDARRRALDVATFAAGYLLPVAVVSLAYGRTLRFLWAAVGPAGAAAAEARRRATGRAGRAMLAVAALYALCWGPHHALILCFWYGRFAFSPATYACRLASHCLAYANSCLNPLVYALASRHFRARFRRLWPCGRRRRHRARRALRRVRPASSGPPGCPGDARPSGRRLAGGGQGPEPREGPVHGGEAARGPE
# Assay Text: displacement of porcine 125I-galanin; L-hGalR3-228 membranes, stable
Measurement Label: Ki (nM)
Write it as a number; the unit nM goes unstated.

Look up Ki for this binder: SPVKEKRGWTLNSAGYLLGPHAIDNHRSFHDKYGLA (peptide, UniProt P07480 26-61, looked up, range -7 to +29; also called galanin -7 to +29; Gal -7-29) [(-7) to (+29) galanin, porcine]
29
